# Binding Level sample 2 - sample 1 (RU) per record follows
Biological target: T1, recombinant human OX40L (extracellular domain, R&D Systems) (human, UniProt P23510 51-183)
T1 construct: also called hOX40L; rec. hOX40L
T1 sequence: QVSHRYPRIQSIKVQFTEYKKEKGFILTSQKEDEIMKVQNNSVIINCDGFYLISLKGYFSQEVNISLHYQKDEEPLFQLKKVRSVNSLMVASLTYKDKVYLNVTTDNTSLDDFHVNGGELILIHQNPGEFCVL
Assay: SPR, second injection after competitor OX40L01E07
Write your answer as a measured quantity: the number, then the unit.

Worked examples follow.
OX40L19A07 (VHH, monovalent Nanobody from E. coli; not shown: C-terminal c-myc and His6 tag) VHH: EVQLVESGGGLVQAGGSLRLSCAASGFTLDDYAIAWFRQAPGKEREGVSRIKISNGRTTYAGSVKGRFTISSDNAKNTVYLQMNSLNAEDTAVYYCAADRSSLLFGSNWDRKARYDYWGQGTQVTVSS	-3 RU
OX40L15B07 (VHH, monovalent Nanobody from E. coli; not shown: C-terminal c-myc and His6 tag) VHH: EVQLVESGGGLVQAGGSLRLSCAASRSIGRLDRMGWYRHRTGEPRELVATITGGSSINYGDFVKGRFTISIDNAKNTVYLQMNNLKPEDTAVYYCNFNKYVTSRDTWGQGTQVTVSS	12 RU
OX40L19D08 (VHH, monovalent Nanobody from E. coli; not shown: C-terminal c-myc and His6 tag) VHH: EVQLVESGGGLVQAGASLRLSCAASGRRFISNYAMGWFRQAPGQERAFVAAISRSGSITYYTDSVKGRFSISRDYAKSTVYLQMDNLKPEDTAVYYCAADGGAVRDLTTNLPDYWGRGTQVTVSS	3 RU
OX40L01E10 (VHH, monovalent Nanobody from E. coli; not shown: C-terminal c-myc and His6 tag) VHH: EVQLVESGGGLVQAGDSLRLSCAASGLTFSSFAMGWFRQAPGKEREFVAAISRSGYGTSEADSVRDRFIISRDNAKNTVTLHLSRLKPEDTAVYYCAAEHTLGRPSRSQINYLYWGQGTQVTVSS	5 RU
OX40L01E07 (VHH, monovalent Nanobody from E. coli; not shown: C-terminal c-myc and His6 tag) VHH: EVQLVESGGGLVQAGGSLRLSCAASGRTFSSIYAKGWFRQAPGKEREFVAAISRSGRSTSYADSVKGRFTISRDNAKNTVYLQMNSLKPEDTAVYYCAAVGGATTVTASEWDYWGLGTQVTVSS	11 RU

Param item = OX40L01B11 (VHH, monovalent Nanobody from E. coli; not shown: C-terminal c-myc and His6 tag) VHH: EVQLVESGGGLVQAGGSLRLSCVASGRSFSTYIMGWFRQAPGKEREFVATISRSGITTRSADSVKGRFTISRDNAKNTVYLQMNSLKPEDTAVYYCAAGPYVEQTLGLYQTLGPWDYWGQGTQVTVSS ; retrieve measured Binding Level sample 2 - sample 1 (RU).
205 RU

Param item = OX40L18E09 (VHH, monovalent Nanobody from E. coli; not shown: C-terminal c-myc and His6 tag) VHH: EVQLVESGGGLVQAGGSLRLSCAASRNILSLNTMGWYRHAPGKPRELVARISSNSKTDYADSVKGRFTISRDNAKNTVLLQMNSLKPEDTGVYYCNLNVWRTSSDYWGQGTQVTVSS ; retrieve measured Binding Level sample 2 - sample 1 (RU).
15 RU
